Origin of measurements: ChEMBL document CHEMBL1155247

target.desc: hERG (KCNH2) (Homo sapiens)
Sequence (Q12809 whole entry): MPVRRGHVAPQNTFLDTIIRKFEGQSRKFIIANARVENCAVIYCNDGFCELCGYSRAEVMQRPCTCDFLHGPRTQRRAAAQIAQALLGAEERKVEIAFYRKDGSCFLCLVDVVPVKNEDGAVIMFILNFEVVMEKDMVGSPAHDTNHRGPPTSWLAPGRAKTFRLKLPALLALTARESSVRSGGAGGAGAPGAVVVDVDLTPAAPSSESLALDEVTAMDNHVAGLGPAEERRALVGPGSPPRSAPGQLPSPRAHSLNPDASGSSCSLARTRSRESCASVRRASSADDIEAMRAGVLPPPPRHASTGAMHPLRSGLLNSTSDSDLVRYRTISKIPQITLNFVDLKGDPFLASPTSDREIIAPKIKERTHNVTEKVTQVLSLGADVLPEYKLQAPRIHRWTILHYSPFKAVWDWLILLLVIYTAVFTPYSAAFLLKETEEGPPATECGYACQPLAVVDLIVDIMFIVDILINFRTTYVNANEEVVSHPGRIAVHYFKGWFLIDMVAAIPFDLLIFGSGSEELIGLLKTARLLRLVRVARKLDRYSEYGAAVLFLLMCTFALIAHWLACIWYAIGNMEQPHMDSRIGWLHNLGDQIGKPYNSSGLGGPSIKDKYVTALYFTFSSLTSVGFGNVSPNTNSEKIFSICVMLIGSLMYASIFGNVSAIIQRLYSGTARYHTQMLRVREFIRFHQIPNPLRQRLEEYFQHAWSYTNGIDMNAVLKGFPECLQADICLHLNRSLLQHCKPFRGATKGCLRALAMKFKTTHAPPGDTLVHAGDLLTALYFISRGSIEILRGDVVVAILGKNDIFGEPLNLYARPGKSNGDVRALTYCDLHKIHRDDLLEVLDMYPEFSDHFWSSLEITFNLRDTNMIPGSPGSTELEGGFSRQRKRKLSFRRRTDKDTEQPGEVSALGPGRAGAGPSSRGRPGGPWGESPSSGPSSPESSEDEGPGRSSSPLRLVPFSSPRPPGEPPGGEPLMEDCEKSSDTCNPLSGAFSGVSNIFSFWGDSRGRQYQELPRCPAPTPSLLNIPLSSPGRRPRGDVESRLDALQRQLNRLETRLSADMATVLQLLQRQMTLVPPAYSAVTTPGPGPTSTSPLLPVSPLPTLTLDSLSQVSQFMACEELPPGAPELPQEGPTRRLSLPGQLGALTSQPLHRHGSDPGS
assay.method.text: Inhibition of human ERG expressed in CHO cells at 1 uM
Format: cell-based
condition.info: CHO cells expressing human ERG
outcome.measure: inhibition at 1 µM (%)
Numbers only, in %.

Ask: Request the reported inhibition at 1 µM associated with `Cl.O=C(CCCCN1CCOCC1)Nc1ccc(-c2cccnc2)cc1`
Reply: 6

====

assay.method.text: Ratio of drug level from brain to plasma in Wistar rat at 10 mg/kg, ip
Type: ADME, organism-based
Design: dose 10 mg/kg, route intraperitoneal
outcome.measure: Kp
Give bare numbers.

Ask: Look at this compound and give its reported Kp. `Cl.O=C(CCCCN1CCOCC1)Nc1ccc(-c2cccnc2)cc1`
Reply: 2.5

====

target.desc: Neuronal acetylcholine receptor subunit alpha-7 (Rattus norvegicus, UniProt Q05941)
Sequence (Q05941 whole entry): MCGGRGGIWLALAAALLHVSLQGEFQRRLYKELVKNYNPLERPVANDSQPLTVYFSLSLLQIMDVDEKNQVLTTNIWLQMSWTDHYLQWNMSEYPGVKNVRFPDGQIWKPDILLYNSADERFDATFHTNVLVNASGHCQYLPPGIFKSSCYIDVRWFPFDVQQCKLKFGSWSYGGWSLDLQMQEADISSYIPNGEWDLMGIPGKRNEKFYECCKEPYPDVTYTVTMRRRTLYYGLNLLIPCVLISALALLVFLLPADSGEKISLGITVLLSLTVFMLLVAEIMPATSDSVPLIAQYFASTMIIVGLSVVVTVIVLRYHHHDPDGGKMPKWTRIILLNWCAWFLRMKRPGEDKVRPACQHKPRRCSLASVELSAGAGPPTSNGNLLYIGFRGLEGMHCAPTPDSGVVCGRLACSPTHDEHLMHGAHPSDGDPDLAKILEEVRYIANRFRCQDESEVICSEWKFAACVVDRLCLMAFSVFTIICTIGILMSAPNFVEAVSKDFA
assay.method.text: Agonist activity at rat alpha7 nAChR expressed in rat GH4C1 cells assessed as calcium flux by FLIPR assay
Assay type: functional, cell-based, GH4-C1
outcome.measure: pEC50
One number for each entry, as −log10 of the molar value.

Use these answered entries as a reference point.
CC(=O)Nc1cccc(-c2ccc(NC(=O)CCCCN3CCCCC3)cc2)c1 ... 6.92
O=C(CCCCN1CCCCC1)Nc1ccc(-c2ccc(F)cc2F)cc1 ... 6.80
CC(=O)c1cccc(-c2ccc(NC(=O)CCCCN3CCCCC3)cc2)c1 ... 6.00
COc1ccc(N2CCN(CCCCNC(=O)c3ccc(-c4ccccc4F)cc3)CC2)c(OC)c1 ... 5.22

Ask: // map `COc1ccc(N2CCN(CCCCNC(=O)c3ccc(-c4ccccc4C)cc3)CC2)c(OC)c1` to recorded pEC50 (system: Neuronal acetylcholine receptor subunit alpha-7 (Rattus norvegicus, UniProt Q05941))
Reply: 5.24

====

target.desc: Neuronal acetylcholine receptor subunit alpha-7 (Rattus norvegicus)
assay.method.text: Displacement of [3H]epibatidine from rat alpha7 nAChR expressed in rat GH4C1 cells
Format: cell-based, GH4-C1
outcome.measure: pKi
Give bare numbers, as −log10 of the molar value.

Ask: Neuronal acetylcholine receptor subunit alpha-7 (Rattus norvegicus) / pKi / `Cl.O=C(CCCCN1CCOCC1)Nc1ccc(-c2cccnc2)cc1` : value?
Reply: 6.59

====

For each record, write down the corresponding pEC50.
target.desc: Neuronal acetylcholine receptor subunit alpha-7 (Rattus norvegicus, UniProt Q05941)
assay.method.text: Agonist activity at rat alpha7 nAChR expressed in rat GH4C1 cells assessed as calcium flux by FLIPR assay
Type: functional, cell-based, GH4-C1
Answers are plain numbers, as −log10 of the molar value.

COc1ccccc1N1CCN(CCCCC(=O)Nc2ccc(-c3cccnc3)cc2)CC1 ... 5.61
CN1CCN(CCCCC(=O)Nc2ccc(-c3cccnc3)cc2)CC1 ... 5.45
O=C(CCCCN1CCCCC1)Nc1ccc(-c2cccnc2)cc1 ... 6.28

Field: pEC50. Fill in for each record below.
1. O=C(CCCCN1CCCCC1)Nc1cccc(Br)c1
2. O=C(CCCCN1CCCCC1)Nc1ccc2c(c1)OCO2
3. CN(CCCCC(=O)Nc1ccc(-c2cccnc2)cc1)CCc1ccccn1
4. O=C(CCCCN1CCCCCC1)Nc1ccc(-c2cccnc2)cc1

Reply:
5.68
4.96
5.49
6.27

Ask: Given `NC(=O)c1cccc(-c2ccc(NC(=O)CCCCN3CCCCC3)cc2)c1` , state its recorded pEC50.
Reply: 7.05
